# Stated conditions: in acetonitrile, 293.15 K
Outcome measure: solubility (mole fraction)
Respond with the number and no other words.

Look up solubility (mole fraction): "Cc1ccc(CO)cc1"
0.361

* * *

# Stated conditions: in n-propanol, 288.15 K
Outcome measure: solubility (mole fraction)
Respond with the number and no other words.

Look up solubility (mole fraction): "Cc1ccc(CO)cc1"
0.34

* * *

# Stated conditions: in ethyl formate, 283.15 K
Outcome measure: solubility (mole fraction)
Respond with the number and no other words.

Look up solubility (mole fraction): "Cc1ccc(CO)cc1"
0.191

* * *

# Stated conditions: in isopropanol, 283.15 K
Outcome measure: solubility (mole fraction)
Respond with the number and no other words.

Look up solubility (mole fraction): "Cc1ccc(CO)cc1"
0.283

* * *

# Stated conditions: in ethyl acetate, 298.15 K
Outcome measure: solubility (mole fraction)
Respond with the number and no other words.

Look up solubility (mole fraction): "Cc1ccc(CO)cc1"
0.433

* * *

# Stated conditions: in acetonitrile, 303.15 K
Outcome measure: solubility (mole fraction)

Look up solubility (mole fraction): "Cc1ccc(CO)cc1"
0.548

* * *

# Stated conditions: in n-propanol, 283.15 K
Outcome measure: solubility (mole fraction)
Respond with the number and no other words.

Look up solubility (mole fraction): "Cc1ccc(CO)cc1"
0.293

* * *

# Stated conditions: in ethyl acetate, 313.15 K
Outcome measure: solubility (mole fraction)

Look up solubility (mole fraction): "Cc1ccc(CO)cc1"
0.671

* * *

# Stated conditions: in dichloromethane, 288.15 K
Outcome measure: solubility (mole fraction)
Respond with the number and no other words.

Look up solubility (mole fraction): "Cc1ccc(CO)cc1"
0.466

* * *

# Stated conditions: in isobutanol, 313.15 K
Outcome measure: solubility (mole fraction)

Look up solubility (mole fraction): "Cc1ccc(CO)cc1"
0.667

* * *

# Stated conditions: in dichloromethane, 303.15 K
Outcome measure: solubility (mole fraction)
Respond with the number and no other words.

Look up solubility (mole fraction): "Cc1ccc(CO)cc1"
0.588

* * *

# Stated conditions: in ethyl formate, 298.15 K
Outcome measure: solubility (mole fraction)
Respond with the number and no other words.

Look up solubility (mole fraction): "Cc1ccc(CO)cc1"
0.372

* * *

# Stated conditions: in ethanol, 308.15 K
Outcome measure: solubility (mole fraction)
Respond with the number and no other words.

Look up solubility (mole fraction): "Cc1ccc(CO)cc1"
0.581

* * *

# Stated conditions: in n-butanol, 293.15 K
Outcome measure: solubility (mole fraction)
Respond with the number and no other words.

Look up solubility (mole fraction): "Cc1ccc(CO)cc1"
0.385

* * *

# Stated conditions: in 1,2-dichloroethane, 278.15 K
Outcome measure: solubility (mole fraction)
Respond with the number and no other words.

Look up solubility (mole fraction): "Cc1ccc(CO)cc1"
0.166

* * *

# Stated conditions: in 1,2-dichloroethane, 293.15 K
Outcome measure: solubility (mole fraction)
Respond with the number and no other words.

Look up solubility (mole fraction): "Cc1ccc(CO)cc1"
0.343

* * *

# Stated conditions: in isobutanol, 283.15 K
Outcome measure: solubility (mole fraction)
Respond with the number and no other words.

Look up solubility (mole fraction): "Cc1ccc(CO)cc1"
0.275

* * *

# Stated conditions: in isobutanol, 293.15 K
Outcome measure: solubility (mole fraction)
Respond with the number and no other words.

Look up solubility (mole fraction): "Cc1ccc(CO)cc1"
0.373

* * *

# Stated conditions: in dichloromethane, 278.15 K
Outcome measure: solubility (mole fraction)
Respond with the number and no other words.

Look up solubility (mole fraction): "Cc1ccc(CO)cc1"
0.4
